Quick reference: IC50 of the listed items.
# Assay: Inhibition of GLI in SAG induced mouse C3H10T1/2 cells assessed reduction Gli-dependent differentiation by measuring ALP activity incubated for 48 hrs by chemiluminescence assay
# Format: cell-based
# Study conditions: C3H 10T1/2, 48 h
The response must be a number in µM with no trailing unit.

Below are worked cases with known answers.
>>> print(df.to_string())
                                   molecule  quantitative_result
0  CC(C)[C@H]1C(=O)N[C@H](CO)Cc2c[nH]c3cccc(c23)N1C                0.171
1  CS(=O)(=O)c1ccc(C(=O)Nc2ccc(Cl)c(-c3ccccn3)c2)c(Cl)c1                0.058
2  CCC(C)[C@H]1C(=O)N[C@H](CO)Cc2c[nH]c3cccc(c23)N1C (stereo partly specified)                 0.03
3  CC(C)[C@H]1C(=O)N[C@H](CO)Cc2cn(C)c3cccc(c23)N1C                0.498

Next, consider the following molecule.
query: Quick check: IC50 of CCCCCCn1cc2c3c(cccc31)N(C)[C@@H](C(C)C)C(=O)N[C@H](CO)C2 ?
result: 0.027

----------
# Test system: Sufu-KO-LIGHT
# Assay: Inhibition of GLI in SAG induced mouse Sufu-KO-LIGHT cells assessed as residual Smo-independent Gli luciferase activity in starvation medium at 100 nM incubated for 30 hrs by dual luciferase assay
# Assay type: cell-based
Measurement type: Activity (%)
Respond numerically; units are % and should not be typed.

Solved cases (6 shown):
In [3]: df
Out[3]:
                                   compound  quantitative_result
0  CC(=O)n1cc2c3c(cccc31)N(C)[C@@H](C(C)C)C(=O)N[C@H](CO)C2                   67
1  CS(=O)(=O)c1ccc(C(=O)Nc2ccc(Cl)c(-c3ccccn3)c2)c(Cl)c1 [VISMODEGIB]                   96
2  CC(C)[C@H]1C(=O)N[C@H](CO)Cc2c[nH]c3c(Br)ccc(c23)N1C                   23
3  CC(C)[C@H]1C(=O)N[C@H](CO)Cc2c[nH]c3cccc(c23)N1C [INDOLACTUM]                   39
4  CC(C)[C@H]1C(=O)N[C@H](CO)Cc2cn(C)c3cccc(c23)N1C                   42
5  C=C[C@@](C)(CCC=C(C)C)c1ccc2c3c(c[nH]c13)C[C@@H](CO)NC(=O)[C@H](C(C)C)N2C                   47

query: Bench note: what Activity did CCC(C)[C@H]1C(=O)N[C@H](CO)Cc2c[nH]c3cccc(c23)N1C (stereo partly drawn) show?
result: 36

query: Looking for the measured Activity of COC(=O)[C@@H]1Cc2c[nH]c3cccc(c23)N(C)[C@@H](C(C)C)C(=O)N1 , can you help?
result: 67

query: Look up Activity for this compound: C=CC(C)(C)c1ccc2c3c(c[nH]c13)C[C@@H](CO)NC(=O)[C@H](C(C)C)N2C [PENDOLMYCIN]
result: 46

query: // returns reported Activity for input COC[C@@H]1Cc2cn(C)c3cccc(c23)N(C)[C@@H](C(C)C)C(=O)N1
result: 69

query: Data request, read-out Activity, for CC(C)[C@H]1C(=O)N[C@H](CO)Cc2cn(C(C)C)c3cccc(c23)N1C
result: 78

query: Look up Activity for this compound: CC(C)[C@H]1C(=O)N[C@@H](CO)Cc2c[nH]c3cccc(c23)N1C
result: 78

query: Fill in the blank: the reported Activity of CCCCCCn1cc2c3c(cccc31)N(C)[C@@H](C(C)C)C(=O)N[C@H](CO)C2 is ____.
result: 25

----------
# Tested on: Shh Light II
# Assay: Inhibition of GLI in SAG induced mouse Shh Light II cells assessed as residual Smo-dependent Gli luciferase activity in starvation medium at 100 nM incubated for 30 hrs by dual luciferase assay
# Assay type: cell-based
Returns the class for an entry based on its Activity. Class ranges: bottom = under 70%, middle = from 70% up to 90%, top = 90% and over

Field: example entries. Status: answers known.
                                   compound  experimental_system  qualitative_label
0  CCCCCCn1cc2c3c(cccc31)N(C)[C@@H](C(C)C)C(=O)N[C@H](CO)C2         Shh Light II             middle
1  CC(C)[C@H]1C(=O)N[C@H](CO)Cc2cn(C(C)C)c3cccc(c23)N1C         Shh Light II                top
2  CC(C)[C@H]1C(=O)N[C@H](CO)Cc2cn(C)c3cccc(c23)N1C         Shh Light II             bottom
3  CS(=O)(=O)c1ccc(C(=O)Nc2ccc(Cl)c(-c3ccccn3)c2)c(Cl)c1         Shh Light II             bottom
4  COC[C@@H]1Cc2cn(C)c3cccc(c23)N(C)[C@@H](C(C)C)C(=O)N1         Shh Light II             middle

query: Where would CC(C)[C@H]1C(=O)N[C@@H](CO)Cc2c[nH]c3cccc(c23)N1C land among the classes by reported Activity?
result: top

query: Into which category would you place CCC(C)[C@H]1C(=O)N[C@H](CO)Cc2c[nH]c3cccc(c23)N1C (stereo partly drawn) ?
result: bottom

query: Which bin, given its Activity, does CC(=O)n1cc2c3c(cccc31)N(C)[C@@H](C(C)C)C(=O)N[C@H](CO)C2 occupy?
result: middle

query: Category of C=CC(C)(C)c1ccc2c3c(c[nH]c13)C[C@@H](CO)NC(=O)[C@H](C(C)C)N2C [PENDOLMYCIN] :
result: bottom

query: Please let me know in which category the item COC(=O)[C@@H]1Cc2c[nH]c3cccc(c23)N(C)[C@@H](C(C)C)C(=O)N1 belongs.
result: top

----------
# System: Shh Light II
# Assay: Inhibition of GLI in SAG induced mouse Shh Light II cells assessed as residual Smo-dependent Gli luciferase activity in starvation medium at 100 nM incubated for 30 hrs by dual luciferase assay
# Format: cell-based
Measurement type: Activity

>>> df
                                   compound  measurement_type  result
0  C=C[C@@](C)(CCC=C(C)C)c1ccc2c3c(c[nH]c13)C[C@@H](CO)NC(=O)[C@H](C(C)C)N2C          Activity     90%
1  CC(C)[C@H]1C(=O)N[C@H](CO)Cc2c[nH]c3cccc(c23)N1C          Activity     68%

// next entry
query: What Activity appears in the records for this compound with Shh Light II? CC(C)[C@H]1C(=O)N[C@H](CO)Cc2c[nH]c3c(Br)ccc(c23)N1C
result: 70%

Cited source for all entries: ChEMBL document CHEMBL5120940
